MEASURED_TARGET: T1, purified human activated C1s protein, two-chain form (Homo sapiens, UniProt P09871 16-688)
T1 construct: Purified protein bought from EMD Millipore; Biotin-labeled in the clone screen; also called active C1s; native C1s protein
T1 sequence: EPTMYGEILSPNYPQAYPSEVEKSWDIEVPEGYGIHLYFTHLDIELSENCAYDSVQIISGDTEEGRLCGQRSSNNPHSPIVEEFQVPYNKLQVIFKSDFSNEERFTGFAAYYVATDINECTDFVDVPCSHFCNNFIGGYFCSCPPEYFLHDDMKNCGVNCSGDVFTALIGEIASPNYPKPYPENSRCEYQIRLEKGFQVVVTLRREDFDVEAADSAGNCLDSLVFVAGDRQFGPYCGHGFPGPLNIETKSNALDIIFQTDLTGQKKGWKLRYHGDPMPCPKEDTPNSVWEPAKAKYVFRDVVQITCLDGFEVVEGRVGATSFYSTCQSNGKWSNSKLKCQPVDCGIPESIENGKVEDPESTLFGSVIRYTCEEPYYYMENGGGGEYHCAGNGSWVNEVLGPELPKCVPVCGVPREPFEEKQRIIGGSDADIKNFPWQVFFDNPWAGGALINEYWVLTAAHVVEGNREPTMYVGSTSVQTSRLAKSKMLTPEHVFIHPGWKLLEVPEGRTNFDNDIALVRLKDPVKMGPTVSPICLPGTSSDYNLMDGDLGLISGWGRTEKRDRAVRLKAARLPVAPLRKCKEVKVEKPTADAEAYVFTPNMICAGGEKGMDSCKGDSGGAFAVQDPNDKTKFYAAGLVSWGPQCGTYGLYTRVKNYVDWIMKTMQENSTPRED
METHOD_DESCRIPTION: bio-layer interferometry (BLI), kinetic analysis
// reported Kd for each item listed
Hi, when you answer, please include the unit after the number. Thanks!

BINDER | Kd
antibody IPN-M27 (antibody, V domains shown, Mouse monoclonal antibody (NZBW hybridoma)) VH: QVQLQQSGAELVRPGASVKLSCKVSGYTFTRYWMHWVKQRPGQGLEWIGEINPSNSDTDYNEEFKSKATLTVDKSSSTAYMHLSNLTSEDSAVYYCTIDDSAYGWFAYWGQGTLVTVSA VL: DIVLTQSTAIMSASPGERVTMTCSASSSISYMHWYHQKPGTSPKRWIYDTSKLASGVPARFSGSGSGTSYSLAISSMEAEDAATYYCHQRSSFPTFGAGTKLELK | 593 pM
antibody IPN-M28 (antibody, V domains shown, Mouse monoclonal antibody (NZBW hybridoma)) VH: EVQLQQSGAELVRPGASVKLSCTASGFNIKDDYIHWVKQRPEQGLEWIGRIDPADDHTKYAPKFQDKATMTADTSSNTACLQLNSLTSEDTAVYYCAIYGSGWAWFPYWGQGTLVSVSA VL: DIVLTQTPDYLAVSLGQRATISCKASQSVDYDGDSYMNWYQQKPGQPPKLLIYAASNLESGIPARFSGSGSGTDFTLNIHPVEEEDAATYYCQQSNEDPWTFGGGTKLEIK | 236 pM
antibody IPN-M10 (antibody, V domains shown, Mouse monoclonal antibody (NZBW hybridoma)) VH: QVQLQQPGAELVRPGASVKLSCKVSGYTFTRYWMHWVKQRPGQGLEWIGEINPSNSDTDYNEEFKSKATLTVDKSSSTAYMHLSSLTSEDSAVYYCTIDDSVYGWFAYWGQGTLVTVSA VL: DIVITQSPAIMSASPGERVTMTCSASSSISYMHWYHQKPGTSPKRWIYDTSKLASGVPARFSGSGSGTSYSLTISSMEAEDAATYYCHQRSSFPTFGAGTKLELK | 607 pM
antibody IPN-M3 (antibody, V domains shown, Mouse monoclonal antibody (NZBW hybridoma); Same VL and VH as IPN-M1 and IPN-M13) VH: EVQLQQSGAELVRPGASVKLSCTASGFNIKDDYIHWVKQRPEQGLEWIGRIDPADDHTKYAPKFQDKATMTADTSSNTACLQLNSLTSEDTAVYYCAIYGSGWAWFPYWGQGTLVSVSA VL: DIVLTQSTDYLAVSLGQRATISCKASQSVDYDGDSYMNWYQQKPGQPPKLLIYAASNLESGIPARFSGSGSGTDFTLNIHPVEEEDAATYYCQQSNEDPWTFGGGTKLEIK | 187 pM
antibody IPN-M1 (antibody, V domains shown, Mouse monoclonal antibody (NZBW hybridoma); of the 17, thirteen were IgG2a, one IgG2b, three IgG1; Same VL and VH as IPN-M3 and IPN-M13) VH: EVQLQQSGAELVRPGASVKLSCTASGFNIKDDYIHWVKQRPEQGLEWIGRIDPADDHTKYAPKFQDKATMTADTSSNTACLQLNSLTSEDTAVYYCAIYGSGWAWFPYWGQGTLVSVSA VL: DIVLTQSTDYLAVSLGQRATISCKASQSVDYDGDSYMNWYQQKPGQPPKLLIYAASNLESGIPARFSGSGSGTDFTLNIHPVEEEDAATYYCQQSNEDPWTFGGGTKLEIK | 260 pM
antibody IPN-M15 (antibody, V domains shown, Mouse monoclonal antibody (NZBW hybridoma)) VH: EVKLEQSGAELVRPGASVKLSCTASGFNIKDDYIHWVKQRPEQGLEWIGRIDPADDHTKYAPKFQDKATMTADTSSNTACLQLNSLTSEDTAVYYCAIYGSGWAWFPYWGQGTLVSVSA VL: FALMTQSTDYLAVSLGQRATISCKASQSVDYDGDSYMNWYQQKPGQPPKLLIYAASNLESGIPTRFSGSGFGTDFTLNIHPVEEEDAATYYCQQSNEDPWTFGGGPKLEIK | 172 pM

Prompt line: Quick one: Kd of antibody IPN-M2 (antibody, V domains shown, Mouse monoclonal antibody (NZBW hybridoma); Same VL and VH as IPN-M8) VH: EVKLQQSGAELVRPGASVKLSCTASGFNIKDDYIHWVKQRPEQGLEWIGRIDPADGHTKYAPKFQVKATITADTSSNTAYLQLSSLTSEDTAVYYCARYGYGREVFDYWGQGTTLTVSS VL: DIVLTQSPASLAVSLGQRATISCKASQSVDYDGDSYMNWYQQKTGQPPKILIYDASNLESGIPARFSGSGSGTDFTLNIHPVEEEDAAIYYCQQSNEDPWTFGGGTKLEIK ?
Response line: 291 pM

Prompt line: Quick one: Kd of antibody IPN-M14 (antibody, V domains shown, Mouse monoclonal antibody (NZBW hybridoma)) VH: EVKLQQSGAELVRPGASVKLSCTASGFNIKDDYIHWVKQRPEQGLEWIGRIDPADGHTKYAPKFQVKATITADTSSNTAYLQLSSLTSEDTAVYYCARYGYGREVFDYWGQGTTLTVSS VL: DIVLTQFPTFLAVFLGQRAPISCKASQSVDYDGDSYMNWFQQKTGQPPKILIYDASNLEFGIPTRFSGSGFGTDFPLNIHPVEEEDAAIYFCQQSNEDPWTFGGGPKLEIK ?
Response line: 207 pM

Prompt line: Quick one: Kd of antibody IPN-M24 (antibody, V domains shown, Mouse monoclonal antibody (NZBW hybridoma)) VH: EVKLQQSGAELVRPGVSVKISCKVSGYTFTDYAMHCVKQSHAKSLEWIGVISIYNGDASYNQKFKDKATMTVDKSSSTSYMDLARLTSEESAVYNCVREAPYLITTVFYAMDYWGQGTSVTVSS VL: DIVMTQSPAIMSASPGEKVTMTCSANSSISYMHWYQQKPGTSPKRWIYDTSKLASGVPTRFSGSGSGTSYSLTISSMEAEDAATYYCHQRSFYLTFGSGTKLEIK ?
Response line: 1010 pM

Prompt line: Quick one: Kd of antibody IPN-M23 (antibody, V domains shown, Mouse monoclonal antibody (NZBW hybridoma)) VH: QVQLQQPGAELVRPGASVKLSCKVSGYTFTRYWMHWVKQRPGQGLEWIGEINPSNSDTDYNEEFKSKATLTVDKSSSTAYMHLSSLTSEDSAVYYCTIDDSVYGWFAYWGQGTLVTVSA VL: DIVMTQSPAIMFASPGERVTMTCSASSSISYMPWYPQKPGPSPKRWIYDTSKLASGVPARFSGSGFGTFYSLTISSMEAEDAAPYYCHQRSSFPPFGAGTKLELK ?
Response line: 570 pM
